Reference source: patent US7410963B2

- SYSTEM: PDE2 (Bos taurus, UniProt P14099)
- Sequence (P14099 whole entry): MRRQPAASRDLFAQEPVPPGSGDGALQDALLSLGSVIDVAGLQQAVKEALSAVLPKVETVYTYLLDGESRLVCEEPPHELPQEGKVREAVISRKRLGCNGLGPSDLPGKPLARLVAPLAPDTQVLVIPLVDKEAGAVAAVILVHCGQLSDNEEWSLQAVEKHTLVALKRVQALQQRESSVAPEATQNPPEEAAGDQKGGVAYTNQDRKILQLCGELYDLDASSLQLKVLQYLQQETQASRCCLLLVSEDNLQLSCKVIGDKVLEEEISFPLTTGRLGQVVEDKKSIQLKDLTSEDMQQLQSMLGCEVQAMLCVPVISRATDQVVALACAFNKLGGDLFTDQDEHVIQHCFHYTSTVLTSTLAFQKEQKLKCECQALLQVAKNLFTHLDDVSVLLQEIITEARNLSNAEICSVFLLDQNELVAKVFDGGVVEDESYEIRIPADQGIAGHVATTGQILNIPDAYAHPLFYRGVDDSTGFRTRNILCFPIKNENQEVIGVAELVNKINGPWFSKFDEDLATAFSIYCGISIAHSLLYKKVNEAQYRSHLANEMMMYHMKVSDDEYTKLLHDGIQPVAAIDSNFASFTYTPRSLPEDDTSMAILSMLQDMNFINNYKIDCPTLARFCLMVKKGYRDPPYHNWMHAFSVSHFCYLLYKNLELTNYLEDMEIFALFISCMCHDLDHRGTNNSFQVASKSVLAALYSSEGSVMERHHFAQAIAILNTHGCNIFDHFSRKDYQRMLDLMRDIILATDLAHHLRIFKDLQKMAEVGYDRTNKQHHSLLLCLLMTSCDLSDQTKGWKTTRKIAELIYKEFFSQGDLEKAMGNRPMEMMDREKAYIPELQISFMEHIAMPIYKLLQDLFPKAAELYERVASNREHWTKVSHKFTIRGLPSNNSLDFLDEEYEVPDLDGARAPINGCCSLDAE
- ASSAY INFO: Radioenzymatic phosphodiesterase assay: PDE2 inhibition
- Assay type: biochemical, bovine
- CONDITIONS USED: Table 1; 10 μM test compound; read-out: PDE2 percentage of inhibition at 10 μM
Exercise: state measured inhibition at 10 µM for each of the molecules provided.
Answers without a unit are incomplete; give the number and then its unit.

These solved cases illustrate the format of a correct answer.
>  <CHEMICAL STRUCTURE>
Cc1ccc(C2=NCC(=O)N(C)c3ccc(-c4ccccc4)cc32)cc1[N+](=O)[O-]

>  <SYSTEM>
PDE2 (Bos taurus, UniProt P14099)

>  <inhibition at 10 µM>
88%

$$$$
>  <CHEMICAL STRUCTURE>
COc1ccc(-c2ccc3c(c2)C(c2cccc(C#N)c2)=NCC(=O)N3C)cc1

>  <SYSTEM>
PDE2 (Bos taurus, UniProt P14099)

>  <inhibition at 10 µM>
92%

$$$$
>  <CHEMICAL STRUCTURE>
COc1cccc(-c2ccc3c(c2)C(c2cccc(C#N)c2)=NCC(=O)N3C)c1

>  <SYSTEM>
PDE2 (Bos taurus, UniProt P14099)

>  <inhibition at 10 µM>
91%

$$$$

Query molecule follows.
Record request: inhibition at 10 µM value, item COc1ccc(C2=NCC(=O)Nc3cc(OC)c(-c4ccccc4)cc32)cc1
91%
